All figures here come from paper PMC11676834.

Readings of HC50 for the listed compounds
# Test system: human erythrocytes
# Test Details: Hemolytic activity
# Assay type: cell-based
# Experimental Setup: Erythrocyte, 1 h at 37 °C, read-out: ED50, Erythrocytes (hemolytic activity)

Compound: CO[C@@H]1[C@@H](O)[C@H](O[C@@H]2[C@@H](O)[C@H](O[C@H]3[C@H](O)[C@@H](O[C@@H]4OC[C@@H](O)[C@H](O)[C@H]4O)[C@H](O[C@H]4[C@H](OC5CC[C@]6(C)[C@H]7CCC89C(=O)O[C@@](C)(CCCC(C)C)C8[C@@H](OC(C)=O)C[C@@]9(C)C7=CC[C@H]6C5(C)C)OC[C@@H](OS(=O)(=O)O)[C@@H]4O)O[C@@H]3C)OC[C@H]2O)O[C@H](CO)[C@H]1O (some centres unmarked) [Frondoside A (10), frondoside A]
HC50 / µM: 1.22
//
Compound: CO[C@@H]1[C@@H](O)[C@H](O[C@@H]2[C@@H](O)[C@H](O[C@H]3[C@H](O)[C@@H](O[C@@H]4OC[C@@H](O)[C@H](O)[C@H]4O)[C@H](O[C@H]4[C@H](O[C@H]5CC[C@]6(C)C7CC[C@]8(C)[C@@H]([C@@](C)(O)[C@H](O)/C=C/C(C)(C)O)CC[C@@]8(C)C7=CC[C@H]6C5(C)C)OC[C@@H](OS(=O)(=O)O)[C@@H]4O)O[C@@H]3C)O[C@H](COS(=O)(=O)O)[C@H]2O)O[C@H](COS(=O)(=O)O)[C@H]1O (some centres unmarked) [Conicospermiumoside A7-2 (5)]
HC50 / µM: 20.4

----------
# Tested on: MDA-MB-231 cells
# Test Details: cells
# Type: cell-based, human
# Experimental Setup: Homo sapiens, MDA-MB-231, 48 h; read-out: Cytotoxicity, IC50, 48 h, MDA-MB-231
pIC50: −log10 of the molar value.
Readout Type: pIC50

Compound: C=C(C)CCC[C@]1(C)OC(=O)C23CC[C@H]4C(=CC[C@H]5C(C)(C)C(O[C@@H]6OC[C@@H](OS(=O)(=O)O)[C@H](O)[C@H]6O[C@@H]6O[C@H](CO)[C@@H](O[C@@H]7O[C@H](CO)[C@@H](O)[C@H](O[C@@H]8O[C@H](CO)[C@@H](O)[C@H](OC)[C@H]8O)[C@H]7O)[C@H](O)[C@H]6O[C@@H]6OC[C@@H](O)[C@H](O)[C@H]6O)CC[C@]45C)[C@]2(C)C[C@H](OC(C)=O)C31 (stereo partly shown) [Okhotoside B1 (8), okhotoside B1]
Test Target: MDA-MB-231 cells
Measured Value: 4.93

----------
Readings of IC50 for the listed compounds
# Test Details: in vitro
# Assay type: cell-based, human
# Experimental Setup: human, 72 h; read-out: Cytotoxicity, IC50, 72 h, MCF-10A
Readout Type: IC50 (µM)

Compound: CO[C@@H]1[C@@H](O)[C@H](O[C@@H]2[C@@H](O)[C@H](O[C@H]3[C@H](O)[C@@H](O[C@@H]4OC[C@@H](O)[C@H](O)[C@H]4O)[C@H](O[C@H]4[C@H](O[C@H]5CC[C@]6(C)C7CC[C@]8(C)[C@@H]([C@@](C)(O)[C@H](O)CC=C(C)C)CC[C@@]8(C)C7=CC[C@H]6C5(C)C)OC[C@@H](OS(=O)(=O)[O-])[C@@H]4O)O[C@@H]3C)O[C@H](COS(=O)(=O)[O-])[C@H]2O)O[C@H](CO)[C@H]1O.[Na+].[Na+] (stereo partly drawn) [Conicospermiumoside A3-1 (1)]
Measured Value: 39

Compound: C=C(C)CCC[C@]1(C)OC(=O)C23CC[C@H]4C(=CC[C@H]5C(C)(C)C(O[C@@H]6OC[C@@H](OS(=O)(=O)O)[C@H](O)[C@H]6O[C@@H]6O[C@H](CO)[C@@H](O[C@@H]7O[C@H](CO)[C@@H](O)[C@H](O[C@@H]8O[C@H](CO)[C@@H](O)[C@H](OC)[C@H]8O)[C@H]7O)[C@H](O)[C@H]6O[C@@H]6OC[C@@H](O)[C@H](O)[C@H]6O)CC[C@]45C)[C@]2(C)C[C@H](OC(C)=O)C31 (stereo partly drawn) [Okhotoside B1 (8), okhotoside B1]
Measured Value: 16.5

Compound: CO[C@@H]1[C@@H](O)[C@H](O[C@@H]2[C@@H](O)[C@H](O[C@H]3[C@H](O)[C@@H](O[C@@H]4OC[C@@H](O)[C@H](O)[C@H]4O)[C@H](O[C@H]4[C@H](O[C@H]5CC[C@]6(C)C7=CC[C@]8(C)[C@@H]([C@@](C)(O)C(=O)CC=C(C)C)CC[C@@]8(C)C7CC[C@H]6C5(C)C)OC[C@@H](OS(=O)(=O)[O-])[C@@H]4O)O[C@@H]3C)O[C@H](COS(=O)(=O)[O-])[C@H]2O)O[C@H](COS(=O)(=O)[O-])[C@H]1O.[Na+].[Na+].[Na+] (stereo partly drawn) [Conicospermiumoside A7-1 (4)]
Measured Value: 11.1

----------
# Test Details: in vitro
# Format: cell-based, human
# Experimental Setup: human, MTT, 24 h; read-out: Cytotoxicity, IC50, MCF-10A

Molecule: CO[C@@H]1[C@@H](O)[C@H](O[C@@H]2[C@@H](O)[C@H](O[C@H]3[C@H](O)[C@@H](O[C@@H]4OC[C@@H](O)[C@H](O)[C@H]4O)[C@H](O[C@H]4[C@H](O[C@H]5CC[C@]6(C)C7CC[C@]8(C)[C@@H]([C@@](C)(O)[C@H](O)/C=C/C(C)(C)O)CC[C@@]8(C)C7=CC[C@H]6C5(C)C)OC[C@@H](OS(=O)(=O)O)[C@@H]4O)O[C@@H]3C)O[C@H](COS(=O)(=O)O)[C@H]2O)O[C@H](COS(=O)(=O)O)[C@H]1O (stereo partly shown) [Conicospermiumoside A7-2 (5)]
Measurement Units: µM
Limit Operator: >
IC50: 50

Molecule: CO[C@@H]1[C@@H](O)[C@H](O[C@@H]2[C@@H](O)[C@H](O[C@H]3[C@H](O)[C@@H](O[C@@H]4OC[C@@H](O)[C@H](O)[C@H]4O)[C@H](O[C@H]4[C@H](O[C@H]5CC[C@]6(C)C7CC[C@]8(C)[C@@H]([C@@](C)(O)[C@H](O)CC=C(C)C)CC[C@@]8(C)C7=CC[C@H]6C5(C)C)OC[C@@H](OS(=O)(=O)[O-])[C@@H]4O)O[C@@H]3C)O[C@H](COS(=O)(=O)[O-])[C@H]2O)O[C@H](CO)[C@H]1O.[Na+].[Na+] (stereo partly shown) [Conicospermiumoside A3-1 (1)]
Measurement Units: µM
Limit Operator: =
IC50: 13.6

Molecule: CO[C@@H]1[C@@H](O)[C@H](O[C@@H]2[C@@H](O)[C@H](O[C@H]3[C@H](O)[C@@H](O[C@@H]4OC[C@@H](O)[C@H](O)[C@H]4O)[C@H](O[C@H]4[C@H](O[C@H]5CC[C@]6(C)C7CC[C@]8(C)[C@@H]([C@@](C)(O)[C@H](O)CC=C(C)C)CC[C@@]8(C)C7=CC[C@H]6C5(C)C)OC[C@@H](OS(=O)(=O)O)[C@@H]4O)O[C@@H]3C)O[C@H](COS(=O)(=O)O)[C@H]2O)O[C@H](COS(=O)(=O)O)[C@H]1O (stereo partly shown) [Frondoside A7-4 (14), frondoside A7-4]
Measurement Units: µM
Limit Operator: =
IC50: 26.8

Molecule: C=C(C)CCC[C@]1(C)OC(=O)C23CC[C@H]4C(=CC[C@H]5C(C)(C)C(O[C@@H]6OC[C@@H](OS(=O)(=O)O)[C@H](O)[C@H]6O[C@@H]6O[C@H](CO)[C@@H](O[C@@H]7O[C@H](CO)[C@@H](O)[C@H](O[C@@H]8O[C@H](CO)[C@@H](O)[C@H](OC)[C@H]8O)[C@H]7O)[C@H](O)[C@H]6O[C@@H]6OC[C@@H](O)[C@H](O)[C@H]6O)CC[C@]45C)[C@]2(C)C[C@H](OC(C)=O)C31 (stereo partly shown) [Okhotoside B1 (8), okhotoside B1]
Measurement Units: µM
Limit Operator: =
IC50: 41

----------
# System: MDA-MB-231 cells
# Test Details: cells
# Assay type: cell-based, human
# Experimental Setup: Homo sapiens, MDA-MB-231; MTT, 24 h; read-out: Cytotoxicity, IC50, MDA-MB-231

Compound: CO[C@@H]1[C@@H](O)[C@H](O[C@@H]2[C@@H](O)[C@H](O[C@H]3[C@H](O)[C@@H](O[C@@H]4OC[C@@H](O)[C@H](O)[C@H]4O)[C@H](O[C@H]4[C@H](O[C@H]5CC[C@]6(C)C7CC[C@]8(C)[C@@H]([C@@](C)(O)[C@H](O)/C=C/C(C)(C)O)CC[C@@]8(C)C7=CC[C@H]6C5(C)C)OC[C@@H](OS(=O)(=O)O)[C@@H]4O)O[C@@H]3C)O[C@H](COS(=O)(=O)O)[C@H]2O)O[C@H](COS(=O)(=O)O)[C@H]1O (stereo partly shown) [Conicospermiumoside A7-2 (5)]
Measurement Units: µM
IC50: 49.9
